Kindly state IC50 for each of the entries shown.
tested on: E. coli V3065 expressing H. pylori AddAB, T4 phage, OD growth; assay: AddAB helicase-nuclease blockers, potency curves – absorbance, E. coli V3065, T4 phage, powder samples, late-stage follow-up (AID 504677)
Active and inactive are the calls of the source.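 The calls were made as follows: active = compounds with IC50 half-inhibiting concentration of 10 µM or lower; inactive = IC50 above 10 µM.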

Query :: Can you look up the measured IC50 of CC(=O)Nc1ccc2nc(NC(=O)c3ccc([N+](=O)[O-])o3)sc2c1 for me?
Result :: > 119 µM (inactive)

Query :: Can you look up the measured IC50 of O=C(Nc1ncccn1)c1ccc([N+](=O)[O-])o1 for me?
Result :: 7.54 µM

Query :: Can you look up the measured IC50 of O=C(Nc1ccc(N2CCOCC2)cc1)c1ccc([N+](=O)[O-])o1 for me?
Result :: 11.8 µM (inactive)

Query :: Can you look up the measured IC50 of O=C(Nc1cccc(NC(=O)c2ccccc2Cl)c1)c1ccc([N+](=O)[O-])o1 for me?
Result :: > 13.2 µM (inactive)

Query :: Can you look up the measured IC50 of NC(=O)c1ccsc1NC(=O)COC(=O)c1ccc([N+](=O)[O-])o1 for me?
Result :: 5.83 µM

Query :: Can you look up the measured IC50 of O=C(OCC(=O)c1cccs1)c1ccc([N+](=O)[O-])o1 for me?
Result :: 53.3 µM (inactive)
